system: HCT-8; test: Cytotoxicity against human HCT8 cells assessed as reduction in cell viability; type: functional, cell-based
pIC50: −log10 of the molar value.
measure: pIC50

CN1CC(c2c[nH]c3cc(Br)ccc23)N(C)CC1c1c[nH]c2cc(Br)ccc12 (stereo unspecified) yielded pIC50 of 5.00 to 6.00

* * *

tested on: BT-474; experiment: Toxicity in human BT474 cells at 20 uM after 40 hrs by LDH assay; format: cell-based; settings: bt-474, 40 h
measure: Activity

Per the records, this compound ( `O=C(N/N=C/c1c[nH]c2ccccc12)C(=O)c1cn(Cc2ccc(Cl)cc2)c2ccccc12` ) has Activity equal to 20 to 25%

The measured Activity associated with `COc1ccc2[nH]cc(/C=N/NC(=O)C(=O)c3cn(Cc4ccc(Cl)cc4)c4ccccc34)c2c1` reads 20 to 25%

* * *

tested on: MCF7; assay: Cytotoxicity against human MCF7 cells assessed as reduction in cell survival after 48 hrs by MTT assay; type: functional, cell-based; details: MCF7, 48 h
Please assign 0.0 whenever IC50 is at or above 2 µM, and 1.0 whenever it is below.

Strictly below 2 µM: is that where IC50 of `COc1ccc2c(/C=N/NC(=O)C(=O)c3c[nH]c4ccccc34)c[nH]c2c1` sits?
0.0

Does the reported IC50 of the following compound sit strictly below 2 µM? `O=C(N/N=C/c1c[nH]c2ccccc12)C(=O)c1cn(Cc2ccc(Cl)cc2)c2ccccc12`
1.0

State whether 2 µM exceeds IC50 recorded for `O=C(N/N=C/c1c[nH]c2ccc(Br)cc12)C(=O)c1c[nH]c2ccccc12` .
0.0

Given the entry `COc1ccc2[nH]cc(/C=N/NC(=O)C(=O)c3c[nH]c4ccccc34)c2c1` , would its reported IC50 be below 2 µM?
1.0

Is IC50 strictly under 2 µM for the entry `O=C(Nc1ccncc1)C(=O)c1cn(Cc2ccc(Cl)cc2)c2ccccc12` ?
1.0

Please let me know if `COc1ccc2[nH]cc(/C=N/NC(=O)C(=O)c3cn(Cc4ccc(Cl)cc4)c4ccccc34)c2c1` shows IC50 below 2 µM.
0.0

* * *

system: MCF7; assay: Cytotoxicity against human MCF7 cells assessed as cell survival at 10 uM after 48 hrs by MTT assay relative to control; assay type: functional; settings: MCF7, 48 h, read-out: Survival
Exercise: for every item that follows, state its recorded viability at 10 µM.
Respond with the bare value in %.

Consider `O=C(N/N=C/c1c[nH]c2ccc(Br)cc12)C(=O)c1c[nH]c2ccccc12` . Its measured viability at 10 µM is 35

The recorded viability at 10 µM for `COc1ccc(/C=N/NC(=O)C(=O)c2c[nH]c3ccccc23)cc1` is 106

Notebook: `O=C(N/N=C/c1c[nH]c2ccc(F)cc12)C(=O)c1c[nH]c2ccccc12` , viability at 10 µM read as 105

Reported viability at 10 µM for `COc1ccc2c(/C=N/NC(=O)C(=O)c3c[nH]c4ccccc34)c[nH]c2c1` was 34.6

Measured viability at 10 µM of COc1cccc2c1C(=O)c1c(O)c3c(c(O)c1C2=O)C[C@@](O)(C(=O)CO)C[C@@H]3O[C@H]1C[C@H](N)[C@H](O)[C@H](C)O1 [DOXORUBICIN] : 27

response.value for `O=C(N/N=C/c1c[nH]c2ccccc12)C(=O)c1c[nH]c2ccccc12` (field: viability at 10 µM) = 99.2

Quick note, viability at 10 µM for `O=C(N/N=C/c1ccncc1)C(=O)c1cn(Cc2ccc(Cl)cc2)c2ccccc12` landed at 82.2
